subject.of.test: T1, Ala mutant SEQ ID NO: 30 (human)
T1 sequence (peptide): EENADDQWMQDEMEIGY
run.description: ELISA, peptide on plate (10 ug/mL)
Quick reference: absorbance 490 nm/630 nm of the listed items.

# binder, units.of.measure, absorbance 490 nm/630 nm
rows = [
    ("G8 (antibody, IgG1, V domains shown) VH: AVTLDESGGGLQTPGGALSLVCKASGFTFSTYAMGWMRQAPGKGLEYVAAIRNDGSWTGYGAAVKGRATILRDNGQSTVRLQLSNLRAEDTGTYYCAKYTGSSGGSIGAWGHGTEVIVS VL: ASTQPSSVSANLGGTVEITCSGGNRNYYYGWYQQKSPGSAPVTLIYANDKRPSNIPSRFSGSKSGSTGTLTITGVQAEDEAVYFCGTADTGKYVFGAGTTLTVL", "OD", 1.93),
    ("E9 (antibody, IgG1, V domains shown) VH: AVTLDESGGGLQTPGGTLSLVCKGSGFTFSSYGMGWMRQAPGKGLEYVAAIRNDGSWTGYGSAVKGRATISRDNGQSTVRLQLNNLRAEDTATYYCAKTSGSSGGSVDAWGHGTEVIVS VL: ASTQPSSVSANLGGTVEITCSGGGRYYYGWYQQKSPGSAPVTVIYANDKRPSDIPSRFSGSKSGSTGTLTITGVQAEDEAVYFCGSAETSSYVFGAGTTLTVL", "OD", 1.91),
    ("G9 (antibody, IgG1, V domains shown) VH: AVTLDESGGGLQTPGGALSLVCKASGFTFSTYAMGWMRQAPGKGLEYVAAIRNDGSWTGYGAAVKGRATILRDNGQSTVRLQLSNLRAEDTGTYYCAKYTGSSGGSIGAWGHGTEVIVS VL: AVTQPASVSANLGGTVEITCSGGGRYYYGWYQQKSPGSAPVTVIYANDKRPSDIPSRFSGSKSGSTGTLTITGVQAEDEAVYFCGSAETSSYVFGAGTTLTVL", "OD", 2.03),
    ("G6 (antibody, IgG1, V domains shown) VH: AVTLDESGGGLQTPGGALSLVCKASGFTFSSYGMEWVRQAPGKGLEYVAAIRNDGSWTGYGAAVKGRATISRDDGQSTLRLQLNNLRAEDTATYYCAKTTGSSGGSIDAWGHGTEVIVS VL: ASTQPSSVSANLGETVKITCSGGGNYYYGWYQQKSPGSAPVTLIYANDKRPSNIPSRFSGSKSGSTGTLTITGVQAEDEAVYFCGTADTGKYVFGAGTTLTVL", "OD", 1.92),
    ("H7 (antibody, IgG1, V domains shown) VH: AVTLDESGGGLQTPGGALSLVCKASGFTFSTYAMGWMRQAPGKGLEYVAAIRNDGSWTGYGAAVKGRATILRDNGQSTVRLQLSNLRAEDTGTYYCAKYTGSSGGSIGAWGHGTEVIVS VL: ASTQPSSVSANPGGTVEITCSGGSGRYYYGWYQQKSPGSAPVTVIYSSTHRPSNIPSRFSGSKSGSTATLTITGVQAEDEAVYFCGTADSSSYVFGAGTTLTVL", "OD", 1.95),
    ("A11 (antibody, IgG1, V domains shown) VH: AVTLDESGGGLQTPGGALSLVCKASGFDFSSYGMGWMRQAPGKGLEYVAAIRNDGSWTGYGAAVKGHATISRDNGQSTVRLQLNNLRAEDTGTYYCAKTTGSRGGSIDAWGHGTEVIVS VL: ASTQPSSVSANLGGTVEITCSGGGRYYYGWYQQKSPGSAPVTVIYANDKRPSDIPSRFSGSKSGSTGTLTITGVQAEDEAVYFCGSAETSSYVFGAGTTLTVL", "OD", 2.03),
]
